assay-procedure: gradient 5% acetonitrile 3 min, to 50% in 2 min, to 85% in 15 min, held 3 min, 100 µL/min
conditions-used: column: Zorbax Extend-C18 2.1 x 50 mm; eluents: water / acetonitrile, 0.1% formic acid
observed-property: RP-LC retention time (s)

{"columns": ["compound", "val"],
 "data": [
  ["O=C(CSCc1ccccc1)Nc1cccc(-c2cn3cccnc3n2)c1", 640]
]}

I = O=C(Nc1ccccc1Cl)C(=O)c1cn(CC(=O)N2CCCC2)c2ccccc12
II = O=C(Nc1nnc2n1CCS2)c1c(F)cccc1F
input: Compare the recorded RP-LC retention time of I and II ; state which is larger. Provide the label of your selected option as the answer.
output: I

###

assay-procedure: gradient 5% acetonitrile 3 min, to 50% in 2 min, to 85% in 15 min, held 3 min, 100 µL/min
conditions-used: column: Zorbax Extend-C18 2.1 x 50 mm; eluents: water / acetonitrile, 0.1% formic acid
observed-property: RP-LC retention time (s)

Solved cases (4 shown):
{"columns": ["compound", "result-units", "RP-LC retention time"],
 "data": [
  ["CCSc1nc2ccc(NS(=O)(=O)c3cc(F)cc(F)c3)cc2s1", "s", 1050],
  ["CC(C)N1C(=O)c2cccnc2Sc2cc(NC(=O)c3cccs3)ccc21", "s", 837],
  ["Cc1nn(CCCC(=O)N2CCN(c3ccccn3)CC2)c(=O)c2cc3occc3n12", "s", 589],
  ["Cc1ccc2[nH]cc(CCN3CC(C(=O)NC4CCCCCC4)CC3=O)c2c1 (centres undefined)", "s", 875]
]}

1 = Cc1nnc(N2CCC(C(=O)N3CCN(c4ccccn4)CC3)CC2)c2nn(-c3ccccc3)c(C)c12
2 = O=C(NCc1ccccc1F)c1ccc(NC(=O)C2CC2)cc1N1CCOCC1
input: Could you check which of 1 and 2 has a smaller value for RP-LC retention time? Give the label of your selection.
output: 1

###

assay-procedure: gradient 5% acetonitrile 3 min, to 50% in 2 min, to 85% in 15 min, held 3 min, 100 µL/min
conditions-used: column: Zorbax Extend-C18 2.1 x 50 mm; eluents: water / acetonitrile, 0.1% formic acid
observed-property: RP-LC retention time (s)

{"columns": ["molecule", "observed-property", "result-units", "val"],
 "data": [
  ["COc1ccc(-c2nnc(-c3cc(S(=O)(=O)N4CCN(C)CC4)ccc3Cl)o2)cc1", "RP-LC retention time", "s", 682]
]}

I = Cc1cc(C)n(CC2CCN(C(=O)c3cc4ccccc4[nH]3)CC2)n1
II = Cc1ccccc1N1CCN(S(=O)(=O)c2cc(-c3nnc(C4CC4)o3)co2)CC1
input: Among I and II , which shows a numerically higher RP-LC retention time result? The response must carry the label of the picked entry.
output: II
(II: 1090 s, I: 717 s)

I = Cc1ccc2nc(NC(=O)Cc3csc4nc(-c5ccc(C)c(C)c5)cn34)sc2c1
II = O=C(Nc1ccc2c(c1)OCCO2)C1CCN(c2cc(N3CCSCC3)ncn2)CC1
input: I'm curious whether I or II has the smaller RP-LC retention time number. Which is it? Kindly give the label for the entry you pick.
output: II

P = O=C(Cn1c(=O)c(S(=O)(=O)c2ccccc2)cc2ccccc21)NCc1ccco1
Q = CNC(=O)c1cc(Oc2ccc(NC(=O)Nc3ccc(Cl)c(C(F)(F)F)c3)cc2)ccn1
R = O=C(Nc1ccc2c(c1)CNCCO2)C1CC1
input: Ordering: ascending RP-LC retention time. Form entry: labels listed in requested order.
output: R, P, Q
(R: 527 s, P: 810 s, Q: 1190 s)

A = Cc1cccc(NC(=O)C23CCC=C2N(C2CCCC2)C(=O)CC3)c1 (stereo not drawn)
B = COc1ccc(-c2noc(-c3ccc(NCCN(C)C)nn3)n2)cc1
input: Endpoint returns the identifier whose RP-LC retention time is numerically larger, either A or B . Write down the label attached to your selection.
output: A
